system: Mustela putorius furo; experiment: Average area under curve value dosed at 0.3 mg/kg, iv in ferrets.; conditions: ferret, in vivo
Property Measured: Average AUC (ng·h/mL)
Entry rule: numbers only, all in ng·h/mL.

Request: For the compound shown here, `CCCC[C@H](N[C@@H](Cc1ccccc1)C(=O)N1CCC(OCOC)CC1)C(=O)N[C@@H](CC1CCCCC1)[C@@H](O)C[C@H](NC(=O)OCCN(C)C)C(C)C` , give the reported Average AUC.
Response: 245

Request: For the compound shown here, `CCCCNC(=O)[C@@H](C[C@H](O)[C@H](CC1CCCCC1)NC(=O)[C@H](CCCC)N[C@@H](Cc1ccccc1)C(=O)N1CCC(OCOC)CC1)C(C)C` , give the reported Average AUC.
Response: 673

Request: For the compound shown here, `CCCC[C@H](O[C@@H](Cc1ccccc1)C(=O)N1CCC(OCOC)CC1)C(=O)N[C@@H](CC1CCCCC1)[C@@H](O)C[C@H](C(=O)NCCCN(C)C)C(C)C` , give the reported Average AUC.
Response: 573

###

assay: Partition coefficient (logD6.5); conditions: octanol/water, pH 6.5
Measured logD by item

These recorded examples may help you get a feel for the data.
INSERT INTO results (smiles_text, measured_value) VALUES
  ('CCCC[C@H](O[C@@H](Cc1ccccc1)C(=O)N1CCC(OCOC)CC1)C(=O)N[C@@H](CC1CCCCC1)[C@@H](O)C[C@H](C(=O)NCCN1CCOCC1)C(C)C', '> 5'),
  ('CCCC[C@H](O[C@@H](Cc1ccccc1)C(=O)N1CCC(OCOC)CC1)C(=O)N[C@@H](CC1CCCCC1)[C@@H](O)C[C@H](C(=O)NCCc1ccccn1)C(C)C', '> 5');

Request: For the compound shown here, `CCCC[C@H](N[C@@H](Cc1ccccc1)C(=O)N1CCC(OCOC)CC1)C(=O)N[C@@H](CC1CCCCC1)[C@@H](O)C[C@H](NC(=O)OCCN(C)C)C(C)C` , give the reported logD.
Response: 3.8

###

assay: Partition coefficient (logD6.5); conditions: octanol/water, pH 6.5
Property Measured: logD
When you answer, write just the number.

INSERT INTO results (smiles_text, property_measured, measured_value) VALUES
  ('CCCC[C@H](O[C@@H](Cc1ccccc1)C(=O)N1CCC(OCOC)CC1)C(=O)N[C@@H](CC1CCCCC1)[C@@H](O)C[C@H](NC(=O)OCCN(C)C)C(C)C', 'logD', 3.6),
  ('CCCC[C@H](O[C@@H](Cc1ccccc1)C(=O)N1CCC(OCOC)CC1)C(=O)N[C@@H](CC1CCCCC1)[C@@H](O)[C@@H](O)CC(C)C', 'logD', 4.8),
  ('CCCCNC(=O)[C@@H](C[C@H](O)[C@H](CC1CCCCC1)NC(=O)[C@H](CCCC)O[C@@H](Cc1ccccc1)C(=O)N1CCC(OCOC)CC1)C(C)C', 'logD', 4.7),
  ('CCCC[C@H](O[C@@H](Cc1ccccc1)C(=O)N1CCC(OCOC)CC1)C(=O)N[C@@H](CC1CCCCC1)[C@@H](O)C[C@H](C(=O)NCCCn1ccnc1)C(C)C', 'logD', 4);

Request: For the compound shown here, `CCCC[C@H](N[C@@H](Cc1ccccc1)C(=O)N1CCC(OCOC)CC1)C(=O)N[C@@H](CC1CCCCC1)[C@@H](O)C[C@H](NC(=O)OCCN1CCOCC1)C(C)C` , give the reported logD.
Response: 3.9

###

molecular target: Renin (Homo sapiens, UniProt P00797); assay: In vitro activity against human renin (pH 6.0)
Sequence (P00797 whole entry): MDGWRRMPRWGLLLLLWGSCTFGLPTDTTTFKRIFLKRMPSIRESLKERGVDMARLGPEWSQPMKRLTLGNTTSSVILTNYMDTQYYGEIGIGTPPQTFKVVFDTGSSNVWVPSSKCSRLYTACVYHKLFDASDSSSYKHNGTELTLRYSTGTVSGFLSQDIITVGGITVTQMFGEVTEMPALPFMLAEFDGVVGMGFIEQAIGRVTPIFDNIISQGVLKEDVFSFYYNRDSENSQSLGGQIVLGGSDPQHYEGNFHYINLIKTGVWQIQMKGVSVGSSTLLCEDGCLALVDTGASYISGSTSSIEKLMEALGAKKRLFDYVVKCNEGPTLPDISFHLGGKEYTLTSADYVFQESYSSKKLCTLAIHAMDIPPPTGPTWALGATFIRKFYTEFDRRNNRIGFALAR
Property Measured: IC50 (nM)
Entry rule: numbers only, all in nM.

Request: For the compound shown here, `CC(C)[C@H](C[C@H](O)[C@H](CC1CCCCC1)NC(=O)[C@H](Cc1c[nH]cn1)NC(=O)[C@H](Cc1ccccc1)NC(=O)OC(C)(C)C)NC(=O)OCCN1CCCC1` , give the reported IC50.
Response: 2.7

Request: For the compound shown here, `CCCC[C@H](N[C@@H](Cc1ccccc1)C(=O)N1CCC(OCOC)CC1)C(=O)N[C@@H](CC1CCCCC1)[C@@H](O)C[C@H](NC(=O)OCCN1CCOCC1)C(C)C` , give the reported IC50.
Response: 1.8

Request: For the compound shown here, `CC(C)[C@H](C[C@H](O)[C@H](CC1CCCCC1)NC(=O)[C@H](Cc1cnc[nH]1)NC(=O)[C@H](Cc1ccccc1)NC(=O)OC(C)(C)C)NC(=O)OCCN1CCOCC1` , give the reported IC50.
Response: 1.3

Request: For the compound shown here, `CCCC[C@H](O[C@@H](Cc1ccccc1)C(=O)N1CCC(OCOC)CC1)C(=O)N[C@@H](CC1CCCCC1)[C@@H](O)C[C@H](NC(=O)OCCc1ccccn1)C(C)C` , give the reported IC50.
Response: 0.9

###

assay: Average peak plasma drug concentration after id dose of 10 mg/kg in ferrets(Plasma samples collected from portal blood).; settings: ferret, plasma (from portal blood)
Property Measured: Cmax (ng/mL)
Entry rule: numbers only, all in ng/mL.

INSERT INTO assay_data (smiles_text, property_measured, measured_value) VALUES
  ('CCCC[C@H](O[C@@H](Cc1ccccc1)C(=O)N1CCC(OCOC)CC1)C(=O)N[C@@H](CC1CCCCC1)[C@@H](O)C[C@H](NC(=O)OCCN1CCOCC1)C(C)C', 'Cmax', 5010);

Request: For the compound shown here, `CCCC[C@H](O[C@@H](Cc1ccccc1)C(=O)N1CCC(OCOC)CC1)C(=O)N[C@@H](CC1CCCCC1)[C@@H](O)C[C@H](C(=O)NCCCN1CCOCC1)C(C)C` , give the reported Cmax.
Response: 6010

Request: For the compound shown here, `CCCC[C@H](N[C@@H](Cc1ccccc1)C(=O)N1CCC(OCOC)CC1)C(=O)N[C@@H](CC1CCCCC1)[C@@H](O)C[C@H](NC(=O)OCCN(C)C)C(C)C` , give the reported Cmax.
Response: 5250

Request: For the compound shown here, `CCCC[C@H](O[C@@H](Cc1ccccc1)C(=O)N1CCC(OCOC)CC1)C(=O)N[C@@H](CC1CCCCC1)[C@@H](O)C[C@H](C(=O)NCCN1CCOCC1)C(C)C` , give the reported Cmax.
Response: 4350

###

assay: Bioavailability in monkey (dose 10 mg/kg i.d.); assay type: ADME, organism-based; conditions: primates, in vivo
Property Measured: bioavailability (%)
Entry rule: numbers only, all in %.

INSERT INTO measurements (smiles_text, property_measured, measured_value) VALUES
  ('CCCC[C@H](N[C@@H](Cc1ccccc1)C(=O)N1CCC(OCOC)CC1)C(=O)N[C@@H](CC1CCCCC1)[C@@H](O)[C@@H](O)CC(C)C', 'bioavailability', 2.9),
  ('CCCC[C@H](O[C@@H](Cc1ccccc1)C(=O)N1CCC(OCOC)CC1)C(=O)N[C@@H](CC1CCCCC1)[C@@H](O)[C@@H](O)CC(C)C', 'bioavailability', 2.5);

Request: For the molecule shown here, `CCCCNC(=O)[C@@H](C[C@H](O)[C@H](CC1CCCCC1)NC(=O)[C@H](CCCC)O[C@@H](Cc1ccccc1)C(=O)N1CCC(OCOC)CC1)C(C)C` , give the reported bioavailability.
Response: 2.5

###

assay: Average peak plasma drug concentration after id dose of 10 mg/kg in ferrets(Plasma samples collected from portal blood).; settings: ferret, plasma (from portal blood)
Property Measured: Cmax (ng/mL)
Entry rule: numbers only, all in ng/mL.

These recorded examples may help you get a feel for the data.
INSERT INTO measurements (smiles_text, property_measured, measured_value) VALUES
  ('CCCC[C@H](O[C@@H](Cc1ccccc1)C(=O)N1CCC(OCOC)CC1)C(=O)N[C@@H](CC1CCCCC1)[C@@H](O)C[C@H](NC(=O)OCCN(C)C)C(C)C', 'Cmax', 1540),
  ('CCCCNC(=O)[C@@H](C[C@H](O)[C@H](CC1CCCCC1)NC(=O)[C@H](CCCC)N[C@@H](Cc1ccccc1)C(=O)N1CCC(OCOC)CC1)C(C)C', 'Cmax', 3220);

Request: For the molecule shown here, `CCCC[C@H](O[C@@H](Cc1ccccc1)C(=O)N1CCC(OCOC)CC1)C(=O)N[C@@H](CC1CCCCC1)[C@@H](O)C[C@H](C(=O)NCCCN(C)C)C(C)C` , give the reported Cmax.
Response: 4990

###

test: Average peak plasma drug concentration after id dose of 10 mg/kg in ferrets(Plasma samples collected from arterial blood).; conditions: ferret, plasma (from arterial blood)
Property Measured: Cmax (ng/mL)
Entry rule: numbers only, all in ng/mL.

These recorded examples may help you get a feel for the data.
INSERT INTO assay_data (smiles_text, measured_value) VALUES
  ('CCCC[C@H](O[C@@H](Cc1ccccc1)C(=O)N1CCC(OCOC)CC1)C(=O)N[C@@H](CC1CCCCC1)[C@@H](O)C[C@H](C(=O)NCCN1CCOCC1)C(C)C', 2770),
  ('CCCC[C@H](O[C@@H](Cc1ccccc1)C(=O)N1CCC(OCOC)CC1)C(=O)N[C@@H](CC1CCCCC1)[C@@H](O)C[C@H](NC(=O)OCCN1CCOCC1)C(C)C', 2840);

// next entry
Request: For the compound shown here, `CCCCNC(=O)[C@@H](C[C@H](O)[C@H](CC1CCCCC1)NC(=O)[C@H](CCCC)N[C@@H](Cc1ccccc1)C(=O)N1CCC(OCOC)CC1)C(C)C` , give the reported Cmax.
Response: 1540
